The molecules listed here are annotated with their inhibition.
# TARGET UNDER TEST: Scavenger receptor class B member 1 (Mus musculus)
# PROCEDURE SUMMARY: mouse SR-BI DiI-HDL uptake blockers – ldlA[mSR-BI] cells, fluorescence, single point, primary screen (AID 488896);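 further: 0% = median of neutral control wells and 100% = median of positive control wells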
# RUN PARAMETERS: ldlA[mSR-BI] CHO cells, 3 h, at 12.5 µM, hits give high values
Screen size: about 320,000 compounds; about 3,100 (0.97%) were called active. Many of the other results were omitted from the sample, so actives are more common in it than they were.

| MOLECULE | TARGET UNDER TEST | inhibition |
| --- | --- | --- |
| C#CCOCCOCCOCCNc1nc(N2CCN(C(=O)Cn3cc(CCO)nn3)CC2)nc(N2CCN(C(=O)Cn3cc(CCCN=C(N)N)nn3)CC2)n1 | Scavenger receptor class B member 1 (Mus musculus) | -17.5% (inactive) |
| O=C(CSc1nnc(-c2c[nH]c3ccccc23)n1-c1ccc(F)cc1)NCc1ccco1 | Scavenger receptor class B member 1 (Mus musculus) | 20.6% (inactive) |
| c1ccc2c(c1)OC1OC2Oc2ccccc21 | Scavenger receptor class B member 1 (Mus musculus) | -7.46% (inactive) |
| CC(C)(C)C(=O)Nc1cccc(-c2ccc[nH]2)n1 | Scavenger receptor class B member 1 (Mus musculus) | -5.41% (inactive) |
| O=C(Cc1ccc(S(=O)(=O)N2CCOCC2)s1)Nc1ccc(Br)c(C(F)(F)F)c1 | Scavenger receptor class B member 1 (Mus musculus) | -43.4% (inactive) |
| CC(C)(C)S(=O)(=O)N1Cc2cc(CO)cc(CCO)c2[C@H]1CCO | Scavenger receptor class B member 1 (Mus musculus) | 2.47% (inactive) |
| Cn1c(N)cc(=O)n(C)c1=S | Scavenger receptor class B member 1 (Mus musculus) | -17.8% (inactive) |
| Cc1csc(NC(=O)Nc2ccccc2[N+](=O)[O-])n1 | Scavenger receptor class B member 1 (Mus musculus) | 2.45% (inactive) |
| CC[C@]12c3[nH]c4cc(CCC(=O)N(C)C)ccc4c3CCN1C(=O)[C@@H](CC(=O)NCC13CC4CC(CC(C4)C1)C3)C[C@@H]2C(=O)N1CCN(C(=O)C2CC2)CC1 | Scavenger receptor class B member 1 (Mus musculus) | 1.08% (inactive) |
| Cc1ccc(S(=O)(=O)n2oc(=O)c(C3CCCCC3)c2N)cc1 | Scavenger receptor class B member 1 (Mus musculus) | -8.19% (inactive) |
| COc1cc2[nH]c(O)c(C=O)c2cc1OC | Scavenger receptor class B member 1 (Mus musculus) | -52% (inactive) |
| COc1ccc(-n2c(SCC(=O)NCc3cccs3)nnc2-c2ccoc2C)cc1 | Scavenger receptor class B member 1 (Mus musculus) | -3.66% (inactive) |
| CCC(C)C(=O)Nc1ccccc1N1CCN(c2ccc(F)cc2)CC1 (configuration not stated) | Scavenger receptor class B member 1 (Mus musculus) | 36.3% (inactive) |
| Cc1ccc2c(O)c(Cc3ccccc3)c(=O)[nH]c2n1 | Scavenger receptor class B member 1 (Mus musculus) | 7.66% (inactive) |
| Cc1cccc(C=CC(=O)c2ccc(Cl)cc2)c1 | Scavenger receptor class B member 1 (Mus musculus) | 0.714% (inactive) |
| CC1CN(Cc2ccccc2)C(=S)NC1=O (configuration not stated) | Scavenger receptor class B member 1 (Mus musculus) | -4.96% (inactive) |
| CCOC(=O)c1ccc(NC(=S)N2CCCC2)cc1 | Scavenger receptor class B member 1 (Mus musculus) | -10.4% (inactive) |
| COc1ccc(C(CNC(=O)c2cccc(S(=O)(=O)Nc3ccc(Br)cc3)c2)N(C)C)cc1 (configuration not stated) | Scavenger receptor class B member 1 (Mus musculus) | -24.3% (inactive) |
| Cc1cccc(C(=O)Nc2ccccc2N2CCN(c3ccc(F)cc3)CC2)c1 | Scavenger receptor class B member 1 (Mus musculus) | 74.9% (active) |
| CCC(C(=O)OCC(=O)Nc1c(Cl)cc(Cl)cc1Cl)c1ccccc1 (configuration not stated) | Scavenger receptor class B member 1 (Mus musculus) | -13.8% (inactive) |
| CCCCC(=O)Nc1ccccc1N1CCN(c2ccc(F)cc2)CC1 | Scavenger receptor class B member 1 (Mus musculus) | 34% (inactive) |
| Cn1nc(-c2ccc(Cl)cc2)c2cc(C(=O)NCc3ccco3)sc21 | Scavenger receptor class B member 1 (Mus musculus) | 90.1% (active) |
